Source listed as ChEMBL document CHEMBL3991601.

Calls of active or inactive are those of the source.
For AP2-associated protein kinase 1 (Homo sapiens, UniProt Q2M2I8), measured Kd is reported for the entries below.
recorded_endpoint: Kd

> print(dat)
                                smiles.data  recorded.endpoint              result
1  C1=C/COCc2cc(ccc2OCCN2CCCC2)Nc2nccc(n2)-c2cccc(c2)COC/1                 Kd   0.042 µM (active)
2  C[C@@H](Nc1cc(F)cc(F)c1)c1cc(C(=O)N(C)C)cc2c(=O)cc(N3CCOCC3)oc12                 Kd  > 30 µM (inactive)
3  CN(C)C(=O)c1cc2cnc(Nc3ccc(N4CCNCC4)cn3)nc2n1C1CCCC1                 Kd  > 30 µM (inactive)
4  Cn1cc(-c2ccc3nnc(C(F)(F)c4ccc5ncccc5c4)n3n2)cn1                 Kd  > 30 µM (inactive)
5  CN1CC[C@@H](c2c(O)cc(O)c3c(=O)cc(-c4ccccc4Cl)oc23)[C@@H]1CO                 Kd  > 30 µM (inactive)
6  CCN1CCN(Cc2ccc(-c3cc4c(N[C@H](C)c5ccccc5)ncnc4[nH]3)cc2)CC1                 Kd  > 30 µM (inactive)
